Give measured Papp for each item. Keep answers brief.
# protocol.description: Apparent permeability in MDCK-MDR1 cells
# Assay type: ADME, cell-based, Canis lupus familiaris
# conditions: dog
Number in ×10⁻⁶ cm/s, nothing else.

Name the recorded Papp for `COc1cn(Cc2cc(-c3ccc(N)nc3)ccn2)c(=O)cc1-c1cc(Cl)ccc1-n1cnnn1` .
0.13

Name the recorded Papp for `COc1cn(Cc2cc(-c3ccc(N)nc3F)ccn2)c(=O)cc1-c1cc(Cl)ccc1-n1cnnn1` .
0.5

---

# protocol.description: Metabolic stability in human liver microsome assessed as half life
# Format: ADME
# conditions: liver microsomes
readout.label: half-life

Name the recorded half-life for `COc1cn(Cc2cc(-c3ccc(N)nc3F)ccn2)c(=O)cc1-c1cc(Cl)ccc1-n1cnnn1` .
> 3 h

Name the recorded half-life for `COc1cn(Cc2cc(-c3ccc(N)nc3)ccn2)c(=O)cc1-c1cc(Cl)ccc1-n1cnnn1` .
> 3 h
